Quick reference: Inhibition (GIA at 1 mg/ml against the 3D7 target strain) of the listed items.
target.entity: AMA1 on P. falciparum 3D7 strain parasites (Plasmodium falciparum)
measurement.protocol: cell-based or functional assay
recorded.endpoint: Inhibition (GIA at 1 mg/ml against the 3D7 target strain) (%)

[[record]]
binder = "monoclonal antibody 4E8 (antibody, V domains shown) VH: EVQLQESGPGLVQPSQSLSITCTVSDFSLIMYGVHWVRQSPGKGLEWLGVIWSGGSTDYNAAFISRLSISKDNSKSQVFFKMNSLQADDTAIYYCARNNGYYVDAMDYWGQGTSVTVSS VL: DVVMTQTPLSLPVSLGDQASISCRSSQSLVHNNGNTYLHWYLQKPGQSPKLLIYKVSNRFFGVPDRFSGSGSGTDFTLKISRVEAEDLGVYFCSQSTHVPTFGGGTKLEIKR"
obs_value = 67

[[record]]
binder = "monoclonal antibody 1B10 (antibody, V domains shown) VH: EVQLQESGPGLVQPSQSLSITCTVSGFSLNMYGVHWVRQSPGKGLEWLGVIWSGGTTDYNAAFISRLSINRDNSKSQVFFKMNSLQTDDTAIYYCVRNNGYYVDAMDYWGQGTSVAVSS VL: DVVMTQTPLSLPVSLGDQASISCRSSQSLVHSNGNTYLHWYLQRPGQSPKLLIYKVSNRFSGVPDRFSGSGSGTDFTLKISRVEAEDLGVYFCSQSTLGPTFGGGTKLEMQR"
obs_value = 65

[[record]]
binder = "monoclonal antibody 4E11 (antibody, V domains shown) VH: EVQLQESGPGLVRPSQSLSITCTVSGFSLPLYGVHWVRQSPGKGLEWLGVIWSGGSTDYNAAFVSRLSISKDNSKSQVFFEMNSLQADDTATYYCARNNGYYVDAMDYWGQGTSVTVSS VL: DVVMTQTPLSLPVSLGDQASISCRSSQSLVHSNGNTYLHWYLQKPGQSPKLLIFKVSNRFSGVPDRFSGSGSGTDFTLQISRVEAEDLGFYFCSQSTHVPTFGGGTKLEIKR"
obs_value = 62

